Where do these numbers come from? They come from patent US20180327367A1.

System: Escherichia coli ATCC 25922
testDescription: Minimum inhibitory concentration, broth micro-dilution (CLSI), E. coli
Format: cell-based
conditionsUsed: Escherichia coli, ATCC25922, 22 h, read-out: MIC (μg/mL) E. coli, E. coli ATCC 25922; 35° C., 22 hours
reportedMetric: MIC

Worked cases, answers included:
[
  {
    "molecule": "CCCCCCCCc1ccc2c(c1)CN([C@@H](CCN)C(=O)N(C)[C@@H]1C(=O)N[C@@H](C)C(=O)N[C@H](C(=O)NCC#N)Cc3ccc(OCCN)c(c3)-c3cc1ccc3OCCN)C2=O [Compound 488]",
    "MIC": "4 µg/mL"
  },
  {
    "molecule": "CCCCCCCCCCNCCC(=O)N[C@@H](CCCCN)C(=O)N(C)[C@@H]1C(=O)N[C@@H](C)C(=O)N[C@H](C(=O)NC(C)C#N)Cc2ccc(OCCN)c(c2)-c2cc1ccc2OCCN (stereo partly drawn) [Compound 415]",
    "MIC": "64 µg/mL"
  },
  {
    "molecule": "CCCCCCCCCCN[C@@H](CO)C(=O)N(C)[C@@H]1C(=O)N[C@@H](C)C(=O)N[C@H](C(=O)NCC#N)Cc2ccc(OCCN)c(c2)-c2cc1ccc2OCCN [Compound 400]",
    "MIC": "> 64 µg/mL"
  },
  {
    "molecule": "CCCCCCc1ccc(C(=O)N[C@@H](CCN[C@@H]2[C@@H](O)[C@H](O)[C@@H](CO)O[C@@H]2O)C(=O)N(C)[C@@H]2C(=O)N[C@@H](C)C(=O)N[C@H](C(=O)NCC#N)Cc3ccc(OCCN)c(c3)-c3cc2ccc3OCCN)c(C)c1 [Compound 518]",
    "MIC": "4 µg/mL"
  },
  {
    "molecule": "CCCCCCCCCC(=O)N[C@@H](CCNC(C)=O)C(=O)N[C@@H](CCN)C(=O)N(C)[C@@H]1C(=O)N[C@@H](C)C(=O)N[C@H](C(=O)NCC#N)Cc2ccc(OCCN)c(c2)-c2cc1ccc2OCCN [Compound 386]",
    "MIC": "64 µg/mL"
  }
]

Reported MIC for CCCCc1ccc(C(=O)N[C@@H](CCC)C(=O)N[C@@H](CCN)C(=O)N(C)[C@@H]2C(=O)N[C@@H](C)C(=O)N[C@H](C(=O)NCC#N)Cc3ccc(OCCN)c(c3)-c3cc2ccc3OCCN)c(C)c1 [Compound 355] : what is it?
4 µg/mL

Reported MIC for CCCCCCCCCCCC(=O)N[C@@H](CC(=O)O)C(=O)N[C@@H](CN)C(=O)N(C)[C@@H]1C(=O)N[C@@H](C)C(=O)N[C@H](C(=O)NCC#N)Cc2ccc(OCCN)c(c2)-c2cc1ccc2OCCN [Compound 387] : what is it?
64 µg/mL

Reported MIC for CCCCCCCC(F)(F)c1ccc(C(=O)N[C@@H](CCN)C(=O)N(C)[C@@H]2C(=O)N[C@@H](C)C(=O)N[C@H](C(=O)NCC#N)Cc3ccc(OCCN)c(c3)-c3cc2ccc3OCCN)c(Cl)c1 [Compound 412] : what is it?
0.13 µg/mL

Reported MIC for CCCCc1ccc(-c2ccc(C(=O)N[C@@H](CN)C(=O)N(C)[C@@H]3C(=O)N[C@@H](C)C(=O)N[C@H](C(=O)NCC#N)Cc4ccc(OCCO)c(c4)-c4cc3ccc4OCCN)cc2)cc1 [Compound 321] : what is it?
1 µg/mL
